Source listed as ChEMBL document CHEMBL3865819.

- ASSAY_TARGET: hERG (KCNH2) (Homo sapiens, UniProt Q12809)
- Sequence (Q12809 whole entry): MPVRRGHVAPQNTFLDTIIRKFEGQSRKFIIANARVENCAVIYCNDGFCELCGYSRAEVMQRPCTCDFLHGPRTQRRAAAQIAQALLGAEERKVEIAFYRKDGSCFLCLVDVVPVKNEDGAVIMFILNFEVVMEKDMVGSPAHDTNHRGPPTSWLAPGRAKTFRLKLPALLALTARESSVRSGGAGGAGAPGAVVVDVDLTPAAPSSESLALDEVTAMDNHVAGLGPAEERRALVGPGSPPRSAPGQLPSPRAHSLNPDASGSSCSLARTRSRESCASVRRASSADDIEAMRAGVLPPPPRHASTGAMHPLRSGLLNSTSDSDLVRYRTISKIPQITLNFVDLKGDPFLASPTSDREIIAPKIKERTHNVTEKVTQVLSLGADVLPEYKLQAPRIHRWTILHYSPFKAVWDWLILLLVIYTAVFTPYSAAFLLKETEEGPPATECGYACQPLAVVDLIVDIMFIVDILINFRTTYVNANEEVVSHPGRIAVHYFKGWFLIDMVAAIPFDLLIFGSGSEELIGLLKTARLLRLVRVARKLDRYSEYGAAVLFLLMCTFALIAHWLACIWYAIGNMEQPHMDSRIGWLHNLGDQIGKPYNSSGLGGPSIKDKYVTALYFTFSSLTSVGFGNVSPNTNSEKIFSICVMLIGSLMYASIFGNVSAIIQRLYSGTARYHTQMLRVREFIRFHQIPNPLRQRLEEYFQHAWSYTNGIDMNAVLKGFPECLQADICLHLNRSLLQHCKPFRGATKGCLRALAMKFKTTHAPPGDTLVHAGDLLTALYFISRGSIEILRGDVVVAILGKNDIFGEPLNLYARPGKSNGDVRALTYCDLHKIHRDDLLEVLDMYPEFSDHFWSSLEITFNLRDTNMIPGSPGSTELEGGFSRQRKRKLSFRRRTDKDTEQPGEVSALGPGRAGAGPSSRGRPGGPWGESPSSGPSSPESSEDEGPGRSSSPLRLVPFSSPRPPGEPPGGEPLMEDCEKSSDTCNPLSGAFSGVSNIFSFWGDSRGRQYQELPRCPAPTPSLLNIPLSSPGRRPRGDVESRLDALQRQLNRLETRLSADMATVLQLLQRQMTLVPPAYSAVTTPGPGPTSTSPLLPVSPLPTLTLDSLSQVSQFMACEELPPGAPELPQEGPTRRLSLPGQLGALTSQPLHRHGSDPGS
- EXPERIMENT: Inhibition of human ERG expressed in HEK293 cells assessed as decrease in channel current at 3 uM after 3 mins at -80 mV holding potential by automated patch-clamp electrophysiology assay
- Format: cell-based
- SETUP_CONDITIONS: HEK293 cells that express hERG
Readings of inhibition at 0.05 h, 3 µM for the listed compounds

{"COMPOUND": "CC(=O)O[C@@H]1[C@H]2[C@@H](OC(=O)C(C)C)[C@@H](C)C[C@]2(OC(C)=O)[C@@H](OC(C)=O)[C@]2(C)OC[C@]13C(=O)[C@H](OC(C)=O)[C@@H]1C[C@](C)(OC(C)=O)[C@@H]1[C@@H]23", "inhibition at 0.05 h, 3 µM (%)": 8}
{"COMPOUND": "CCC(=O)O[C@@H]1[C@@H]2[C@@H](OC(C)=O)[C@@]34CO[C@@](C)([C@H](OC(C)=O)[C@@]2(O)C[C@@H]1C)[C@@H]3[C@@H]1[C@@H](C[C@]1(C)OC(C)=O)[C@@H](OC(=O)c1ccccc1)C4=O", "inhibition at 0.05 h, 3 µM (%)": 12}
{"COMPOUND": "CCC(C)C(=O)O[C@H]1C(=O)[C@@]23CO[C@@](C)([C@H](OC(C)=O)[C@@]4(OC(C)=O)C[C@](C)(OC(=O)c5ccccc5)[C@H](OC(=O)C(C)C)[C@@H]4[C@H]2OC(C)=O)[C@@H]3[C@@H]2[C@H]1C[C@]2(C)OC(C)=O (some centres undefined)", "inhibition at 0.05 h, 3 µM (%)": 14}
{"COMPOUND": "CCCCCC(=O)O[C@@H]1[C@@H]2[C@@H](O)[C@]34CC[C@H]5[C@@H]([C@H]3[C@@](C)(OC4)[C@H](OC(C)=O)[C@@]2(O)C[C@@H]1C)C5(C)C", "inhibition at 0.05 h, 3 µM (%)": 19}
